System: MDCK cells co-expressing GFP-K-RASG12V and mCherry-CAAX
Assay: Cytotoxicity in mislocalization screen (death of all cells in well)
Conditions: drug caused death of all cells in well at 30 μM
Test readout: Cytotoxic at 30 μM

# Compound, Cytotoxic at 30 μM
rows = [
    ("COc1ccc([C@@H](C)N(CC=C(c2ccccc2)c2ccccc2)CCN(C)C)cc1", "Yes"),
    ("CN1CCN(CCN(CC=C(c2ccccc2)c2ccccc2)[C@@H]2CCc3ccccc32)CC1 [NY0369b]", "Yes"),
    ("COC(=O)[C@H](CC(C)C)NC(=O)[C@H](NCC=C(c1ccccc1)c1ccccc1)c1ccccc1", "No"),
    ("O=C(c1cc(-c2ccc(Cl)cc2)on1)N(CC=C(c1ccccc1)c1ccccc1)CCN1CCCC1", "Yes"),
    ("C[C@@H](NCCN1c2ccccc2Sc2ccccc21)c1ccc(F)cc1", "No"),
]

Task: Consider the compound `C(CN(CCN1CCCC1)[C@@H]1C[C@H]1c1ccccc1)=C(c1ccccc1)c1ccccc1` and give its measured Cytotoxic at 30 μM.
Result: Yes

Task: Fill in the blank: the reported Cytotoxic at 30 μM of `Brc1cccc(CN(CC=C(c2ccccc2)c2ccccc2)CCN2CCCC2)n1` is ____.
Result: Yes

Task: Can you look up the measured Cytotoxic at 30 μM of `COc1ccc([C@@H](C)N(CC=C(c2ccccc2)c2ccccc2)CC(=O)N2CCN(C)CC2)cc1` for me?
Result: No

Data credit: patent US12043602B2
